assay: NCI Yeast Anticancer Drug Screen. Data for the bub3 strain (AID 167); details: S. cerevisiae bub3 mutant strain, at 50.0 µM, active compounds read high
The panel holds about 79,000 compounds, 15% with a hit somewhere; the sample as a whole holds those more often.

molecule	growth inhibition / %
O=C1NC(N2CCCC(CO)C2)=N/C1=C\c1cccs1 (stereo not drawn)	-14.4
CCOC(=O)c1c[nH]c2c(Cl)c(C)ccc2c1=O	-30.1
OC(c1ccccc1)C1CC2C=CC1C2 (stereo not drawn)	-2.05
O=C(C[n+]1ccccc1)c1ccc([N+](=O)[O-])cc1	-6.7
CC(=O)Nc1ccc(Cc2[nH]c(=O)[nH]c(=O)c2Br)cc1	1.05
CNc1ncnc2c1ncn2C	1.6
O=C(NNC1=NCCN1)c1ccco1	-2.3
O=C1C2C(C(=O)N1c1ccccc1)C1(c3ccccc3)CCC2(C(=O)c2ccccc2)O1 (stereo not drawn)	9.05
C=CCNC(=S)NNC(=O)c1c(C)nc2sccn12	-14.2
Cc1n[nH]c(=O)n1-c1cccnc1	3.55
CC(=O)CC(=O)N1CCN(C(=O)CC(C)=O)C(C)C1 (stereo not drawn)	-11.7
O=Cc1ccc(OCCCOc2ccc([N+](=O)[O-])cc2)cc1	33.1
O=C(/C=C/CBr)NC(Cc1ccccc1)C(=O)O (stereo not drawn)	15.6

====

experiment: NCI Yeast Anticancer Drug Screen. Data for the mec2-1 strain (AID 157); details: S. cerevisiae mec2-1 strain, at 50.0 µM, active compounds read high
The panel holds about 79,000 compounds, 15% with a hit somewhere; the sample as a whole holds those more often.

compound	growth inhibition, %
CC(=O)OCC1OC(OC(C)=O)C(NC(=O)C[NH-])C(OC(C)=O)C1OC(C)=O.CC(=O)OCC1OC(OC(C)=O)C(NC(=O)C[NH-])C(OC(C)=O)C1OC(C)=O.[Cl][Pt+2][Cl] (centres undefined)	-19.4
CSc1ccc(NC(=O)Nc2cc(C)c(C)cc2C)cc1	2.1
CS(=O)(=O)N1CCCN(S(C)(=O)=O)COC1	-6.65
CC(=O)NCCC1CN(C(=O)/C=C/I)c2ccccc21 (centres undefined)	30.4
CCOC(=O)N1CCC2C(=C(C)C(C)C3=C2C(=O)c2ccccc2C3=O)C1 (centres undefined)	-3.5
COc1ccc(OC)c(NC(=O)C2=C(C)NC(C)=C(C(=O)Nc3cc(OC)ccc3OC)C2c2cccc([N+](=O)[O-])c2)c1	8.65
CCO/C(C)=N/NC(=O)c1n[nH]c2ccccc12	-1.45
COc1ccc(CCNC(=O)CCC2CCN(CCc3ccc(OC)c(OC)c3)CC2)cc1OC	-2.05
Cc1ccc(S(=O)(=O)OCCOc2ccc(C(C)(C)CC(C)(C)C)cc2)cc1	-15.6

====

// values below are reported growth inhibition
experiment: NCI Yeast Anticancer Drug Screen. Data for the mec2-1 strain (AID 157); settings: S. cerevisiae mec2-1 strain, at 50.0 µM, active compounds read high
The panel holds about 79,000 compounds, 15% with a hit somewhere; the sample as a whole holds those more often. Where a SMILES comes first, the peptide text is derived from it. [ ]: non-standard residue; d: D form. ξ: configuration not given here. ξF = NC(Cc1ccccc1)C(=O)O
reported.property: growth inhibition (%)

compound	reported.property	test.result
CCc1c2cc(OC)c(OC)cc2cc2c3cc(OC)c(OC)cc3cc[n+]12 (tested in a mixture with another compound)	growth inhibition	-22.4
NC(Cc1ccccc1)C(=O)NCC(=O)O (stereo not given) (H-[ξF]-Gly-OH)	growth inhibition	8.65
COc1ccc(NC(=O)CCCC(=O)CC(=O)c2ccc(Cl)cc2)c(OC)c1	growth inhibition	13.2
CCC(C)C(N)C(=O)NC(Cc1ccc(O)cc1)C(=O)O (stereo not drawn) (H-Ile-Tyr-OH; configuration not given here)	growth inhibition	-2.35
CCc1nc(N)nc(N)c1-c1ccc(OC)c(N)c1	growth inhibition	28.1
CC(C(=O)c1ccc(Cl)cc1)[n+]1cc(Br)cc(Br)c1 (stereo not given)	growth inhibition	-14.2
C#CCn1c(=O)c2ccccc2n(CC#C)c1=O	growth inhibition	-1.6
CCC(=O)C(C)C(=O)N(CC(C)C)CC(C)C (stereo not given)	growth inhibition	-6.85
CC1(C)OCC2OC(O)C(OS(=O)(=O)c3ccc([N+](=O)[O-])cc3)C2O1 (stereo not given)	growth inhibition	-2.55
O=C(CCC1CCCCC1=O)c1ccc(Br)cc1 (stereo not given)	growth inhibition	-15.8
O=C(NCCN1CCCCC1)C(O)(C1CCCCC1)C1CCCCC1	growth inhibition	7.65
OCc1ccc2ccc3ccc(CO)nc3c2n1	growth inhibition	15.4
COc1ccc(Br)cc1/C=N\NC(=O)c1ccccc1N(C)C	growth inhibition	-11.6
COc1cc(/C=C(\C#N)C(N)=O)cc(Br)c1O	growth inhibition	-24
CCC(C)C(C)(O)CC (stereo not given)	growth inhibition	-28.9
CN1C(c2ccccc2)=C(C#N)C(=O)CC(c2ccccc2)N1C (stereo not given)	growth inhibition	11.6
Cc1cc(=O)[nH]n1-c1ccc([N+](=O)[O-])cc1	growth inhibition	-2.4
COC(=O)c1nnn(-c2cc(Cl)ccc2Cl)c1C(=O)c1ccc(OC)cc1	growth inhibition	3.8
CC(O)CN1CCN(CC(C)O)C(C)C1 (stereo not given)	growth inhibition	1.65
CC(=O)Oc1cc(OC(C)=O)c(OC(C)=O)c2c1CCCC2	growth inhibition	14.8
Cc1nn(C(=O)c2ccc(Cl)cc2)c2c1C(c1ccccc1O)SC(N)=N2 (stereo not given)	growth inhibition	-47.1
O=C(O)Cc1cc(CC(=O)O)cc(CC(=O)O)c1	growth inhibition	-18.8
S=c1sc2ccccc2n1CN1CCCC1	growth inhibition	0.05
O=C(CC(c1ccccc1)C1CCCC1=O)c1ccccc1 (stereo not given)	growth inhibition	1.65
COC(=O)C1(Cc2ccccc2)Cc2cc3c(cc2C1=O)CCC3 (stereo not given)	growth inhibition	3.75
CCCCn1cnc2ccc3nc(-c4ccccc4)c(-c4ccccc4)nc3c2c1=O	growth inhibition	-15.4
c1cc[n+](CC[n+]2ccccn2)nc1	growth inhibition	22
O=C1C=CC2(CCC23C=CC(=O)O3)O1 (stereo not given)	growth inhibition	1.95
O=C1c2ccccc2C(=O)c2c1c([N+](=O)[O-])c1c(c2[N+](=O)[O-])OCO1	growth inhibition	0.15
CC(=O)OC1C(COC(=O)c2ccccc2)OC(Nc2ncc(-c3ccc(Br)cc3)s2)C(OC(=O)c2ccccc2)C1OC(=O)c1ccccc1 (stereo not given)	growth inhibition	15.4
CCCSC(=O)Nc1ccc(Cc2ccc(NC(=O)SCCC)cc2)cc1	growth inhibition	-17.3
Cc1cc(C)n(-c2nc(-n3nc(C)cc3C)nc(-n3nc(C)cc3C)n2)n1	growth inhibition	-32.2
COc1cc(C(=O)c2cocc2C(=O)c2ccc3c(c2)OCO3)cc(OC)c1OC	growth inhibition	-33.3
CCOC(=O)/C=C/SCCCN	growth inhibition	-1.4
CCOC(=O)c1c(NCCO)c(-c2ccccc2)c(=O)n2c1[nH]c1ccccc12	growth inhibition	6.6
C1=CCC(C(Nc2nncs2)Nc2nncs2)CC1 (stereo not given)	growth inhibition	3.95
CC(Sc1nc2ccc(Cl)cc2[nH]1)C(=O)O (stereo not given)	growth inhibition	-4
CCCC(C)OC(=O)Nc1cccc(O)c1 (stereo not given)	growth inhibition	-10.9
CC1=C(C(=O)NC2CCCCC2)CC(C(=O)NC2CCCCC2)=C(C)N1	growth inhibition	-25.6
[Cl][Pd][Cl].[NH-]c1ccc(/C=C2\C=Cc3ccccc32)cc1.[NH-]c1ccc(/C=C2\C=Cc3ccccc32)cc1	growth inhibition	32.8
O=C1NCC2Cc3ccccc3C(c3ccccc3)=C12 (stereo not given)	growth inhibition	-1.1
Cc1ccc([Se](=C(C(=O)c2ccccc2)C(=O)c2ccccc2)c2ccc(C)cc2)cc1	growth inhibition	11.7
COc1ccc(N2C(=O)C3c4[nH]c5cccc(C)c5c4C4CCC(C(C)(C)C)CC4C3C2=O)cc1 (stereo not given)	growth inhibition	-21.1
CCOC(=O)C(=N\Nc1ccccc1)/C(C)=N\NC(N)=S	growth inhibition	-7.45
CCOP(=O)(OCC)/C(C#N)=C/c1cccc([N+](=O)[O-])c1	growth inhibition	2.5

====

assay: NCI Yeast Anticancer Drug Screen. Data for the cln2 rad14 strain (AID 165);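 also: 0% = growth equal to vehicle treated cultures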; conditions: S. cerevisiae cln2 rad14 strain, at 50.0 µM, active compounds read high
About 79,000 compounds went through this panel and 15% of them were active in at least one assay; those are over-represented in the sample as a whole.
// values below are reported growth inhibition

compound	growth inhibition (%)
COc1cc(C(=O)C(C)Br)cc(OC)c1OC (stereo not drawn)	-23
Cc1nc(NCCNCCO)nc2c1C(=O)Nc1ccccc1N2	-5.3
Oc1ccccc1/C=N/Nc1nc(N/N=C/c2ccccc2O)nc(N/N=C/c2ccccc2O)n1	16.9
Nc1ncnc2c1nnn2CCCCCC(=O)O	-7.95
CN1N(c2ccccc2)C(=O)C2=NC=C(C#N)C(=N)C21C (stereo not drawn)	15.9
Nc1c(Cl)ncnc1NCCCCCCCCCCCCNc1ncnc(Cl)c1N	-8.95
Nc1nnc2nc(CC(=O)c3ccccn3)/c(=C/C(=O)c3ccccn3)n12	-43.3
CNC(=O)c1n[nH]c(=S)[nH]c1=O	-52.8
Cc1ccccc1C(=O)Oc1ccccc1Cl	4.25
Nc1cccc(=O)[nH]1	3.7
Cc1cc(Cl)cc(Cl)c1OCC(=O)Nc1ccc(Cl)cc1	4
Cn1[nH]c(=O)c2ncccc2c1=O	-87.8
COC(=O)C(C(=O)C(=O)Nc1ccc(C)cc1C)c1nc2ccc([N+](=O)[O-])cc2[nH]c1=O (stereo not drawn)	7.95
CCCCCCCCCCCC(=O)O (tested in a mixture with another compound)	-39.9
C/C(=N\NC(N)=S)c1ccc(/C(C)=N/NC(N)=S)cc1	-13.2
CCCCCCCCCCCCCCCCCC(=O)OCCCC	-20.4
O=C(c1cccc([N+](=O)[O-])c1)N1CCCCC1	-17.1
N#CC1=C(N)NC(=O)C(C(N)=O)C1c1ccccc1Cl (stereo not drawn)	-11.3
Cc1csc2[nH]c(=O)[nH]c(=O)c12	-28.1
C/C(CCc1ccccc1)=N\Nc1ccc([N+](=O)[O-])cc1[N+](=O)[O-]	-17
COCOc1ccc(C(=O)C(C)c2ccc(OCOC)cc2OCOC)c(O)c1 (stereo not drawn)	23.2
CC(=O)OC1=CC(=O)N(C(=O)c2ccccc2)C1	-12.2
CCN(CC)CCOc1ccc2ccccc2c1C(Cc1ccccc1)NCCO (stereo not drawn)	-19.6
CCCCCC(=O)OCC(Br)CBr (stereo not drawn)	-23.1
NC1CC1	-9.95
Clc1ccc(C2NC(c3ccc(Cl)cc3)NC(c3ccc(Cl)cc3)N2)cc1 (stereo not drawn)	-5.4
O=[N+]([O-])c1ccc(Cl)cc1N/N=C/c1ccnc2ccccc12	-15.1
CC1(C)C2(SCCS2)C(C)(C)C12SCCS2	3.75
C(=Nc1ccc2c(c1)Cc1ccccc1-2)c1ccc2c(c1)OCO2	-2.1
N#CC1CC=CCC1 (stereo not drawn)	15.2
BrCCCC1CCCCC1	2.1
NNC(=O)/C(=C/c1ccc(Cl)cc1Cl)NC(=O)c1ccccc1	60.4
O=C(CC(=O)c1cccc([N+](=O)[O-])c1)C(=O)Nc1ccccc1	11.1
CSC1=NC(C)(C)N=C(Oc2cc(Cl)cc(Cl)c2)N1	-8.7
Nc1on(C(=O)c2ccccc2)c(=O)c1Cc1ccccc1	-36
COc1cc(/C=C2/C(=O)N=C(NC(C)=O)N2C)ccc1OC(C)=O	6.35
Cc1ccc(N(CN2C(=O)CCC2=O)CS(=O)(=O)c2ccc(C)cc2)cc1	21.4
C[Si](C)(C)/C(=N/Nc1ccc([N+](=O)[O-])cc1[N+](=O)[O-])c1ccccc1	-13.6
O=C(/C(=C(/[O-])C(F)(F)F)[n+]1cccc2ccccc21)C(F)(F)F	-10.4
Cc1ccc(Nc2nc3ccccc3nc2NS(=O)(=O)c2ccc(N)cc2)cc1	5.85
O=C(O)CCCCC(=O)c1cc(O)ccc1O	-53.3
c1ccc(CCN2CCN=C2Cc2ccccc2)cc1	-32.8
Cc1cc(Cl)ccc1C(=O)O	1.35
O=C(Nc1cc(Cl)c(Oc2ccc(Cl)cc2)cc1S(=O)(=O)O)Nc1cccc(Cl)c1Cl	98.2
COc1ccc(-c2cc(C(=O)Nc3cccc(C(F)(F)F)c3)[nH]c(=S)n2)cc1	19.3
C/C(=N\O)c1ccc(OCc2cc(C(F)(F)F)cc(C(F)(F)F)c2)cc1	-1.5
c1ccc2c(c1)ccc1c3ccccc3ccc21	25.6
CCN(CCOC(=O)Nc1ccc(Cl)cc1)C(=O)Nc1ccc(Cl)cc1	2.8
